Exercise: for every item that follows, state its recorded residual activity.
target: Serine/threonine-protein kinase N2 (Homo sapiens); settings: at 1 µM
Lab book: enter the figure in %, no units written.

Query string: Sample C[C@@H](N)[C@H]1CC[C@H](C(=O)Nc2ccncc2)CC1 — what was its residual activity?
Result string: 16

Query string: What does the record list as residual activity for Cc1cncc2cccc(S(=O)(=O)N3CCCN(C(=O)CN)C[C@H]3C)c12 ?
Result string: 22

Query string: Which measured residual activity value corresponds to O=C1c2ccccc2-[n+]2ccc3c([nH]c4ccccc43)c21 ?
Result string: 86

Query string: // residual activity lookup, key: COc1cc2ncnc(N3CCN(C(=O)Nc4ccc(Oc5ccccc5)cc4)CC3)c2cc1OC
Result string: 88

Query string: GET /values?readout=residual activity&item= COc1cc2ncnc(Nc3ccc(Oc4ccccc4)cc3)c2cc1OC
Result string: 91

Query string: Please report the recorded residual activity for Cn1cnc2cc3c(Nc4cccc(Br)c4)ncnc3cc21 .
Result string: 101

Query string: residual activity lookup needed for CN(C)c1ccc(/C=C2\C(=O)Nc3ccccc32)cc1 , thanks.
Result string: 113

Query string: residual activity lookup needed for O=c1c2ccccc2[nH]c(=S)n1CCN1CCC(=C(c2ccc(F)cc2)c2ccc(F)cc2)CC1 , thanks.
Result string: 114

Query string: Could you share which residual activity value was measured for COc1ccc(CNc2nc(N(CCO)CCO)nc3c2ncn3C(C)C)cc1 ?
Result string: 104

Query string: For the compound Nc1nc(Nc2ccc(S(N)(=O)=O)cc2)nn1C(=S)Nc1c(F)cccc1F , what residual activity is on record?
Result string: 5
